Values were extracted from ChEMBL document CHEMBL4431323.

# SYSTEM_NAME: UniProtKB O43570
# Sequence (O43570 whole entry): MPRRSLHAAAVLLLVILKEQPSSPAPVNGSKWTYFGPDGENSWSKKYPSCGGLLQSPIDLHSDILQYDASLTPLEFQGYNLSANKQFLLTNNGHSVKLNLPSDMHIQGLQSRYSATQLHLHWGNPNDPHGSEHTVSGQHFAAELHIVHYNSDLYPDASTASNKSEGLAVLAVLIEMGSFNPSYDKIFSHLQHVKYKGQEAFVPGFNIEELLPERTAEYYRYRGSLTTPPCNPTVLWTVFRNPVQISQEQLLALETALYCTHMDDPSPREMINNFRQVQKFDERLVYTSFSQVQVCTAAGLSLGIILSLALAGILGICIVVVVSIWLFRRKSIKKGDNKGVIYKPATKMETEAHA
MEASURED_ENDPOINT: pKi
# pKi is unitless: minus log10 of the molar concentration; print number only

Jot down pKi (UniProtKB O43570) of NS(=O)(=O)c1ccc(O)cc1 . 6.75

----------
Values of pKi reported for Carbonic anhydrase 9 (Homo sapiens, UniProt Q16790) appear below.
pKi: −log10 of the molar value.

Use the examples below as a reference point.
COMPOUND: CC(=O)OC[C@H]1OC(NS(=O)(=O)c2ccc(O)cc2)C(OC(C)=O)=C[C@@H]1OC(C)=O (stereo partly drawn)
SYSTEM_NAME: Carbonic anhydrase 9 (Homo sapiens, UniProt Q16790)
pKi: < 4.30

COMPOUND: NS(=O)(=O)c1ccc(O)cc1
SYSTEM_NAME: Carbonic anhydrase 9 (Homo sapiens, UniProt Q16790)
pKi: 6.63

Jot down pKi (Carbonic anhydrase 9 (Homo sapiens, UniProt Q16790)) of O=S(=O)(N[C@@H]1C=C[C@@H](O)[C@@H](CO)O1)c1ccc(O)cc1 . < 4.30
